Test system: NCI/ADR-RES ovarian
Assay: NCI tumour cell line growth inhibition, 48 h
readout.name: TGI (µM)
One number for each entry, in µM.

INSERT INTO measurements (compound, numeric_result) VALUES
  ('COc1ccc(-c2nn(-c3cccc(NC(=O)c4cccc(C(F)(F)F)c4)c3)cc2-c2ccncc2)cc1Cl', 14);

// each listed compound needs a value for TGI
1. CC1=NN(c2cccc(Cl)c2)C(=N/c2nc3ccccc3s2)/C1=C\c1cccs1
2. COCCN(CCOC)C(=O)COc1c2cc(C(C)(C)C)cc1Cc1cc(C(C)(C)C)cc(c1OCC(=O)N(CCOC)CCOC)Cc1cc(C(C)(C)C)cc(c1OCC(=O)N(CCOC)CCOC)Cc1cc(C(C)(C)C)cc(c1OCC(=O)N(CCOC)CCOC)Cc1cc(C(C)(C)C)cc(c1OCC(=O)N(CCOC)CCOC)C2
3. N#C/C(=C1C=C/C(=N\O)C(Cl)=C\1)c1ccccc1
4. O=C(NCCNc1nccc(-c2c(-c3ccc(F)cc3)nc3sccn23)n1)c1ccccc1
5. Cc1cc2cc3cc(C)c(N)cc3[n+](C)c2cc1N

Result ::
[56.5, 33, 5.17, 76.4, 23.4]

// each listed compound needs a value for TGI
1. CNCCCNC1(c2cc3ccccc3s2)CCCCC1
2. CC1=CC(=O)[C@@H](O)[C@]2(C)[C@H]3[C@@]4(O)OC[C@@]35[C@@H](C[C@@H]12)OC(=O)C(OC(=O)CC1=CCCC1)[C@H]5[C@@H](C)[C@H]4O (stereo partly drawn)

Result ::
1: 29.9; 2: 1.21

====

Exercise: state measured TGI for each of the molecules provided.
System: IGROV1 ovarian
Experiment: NCI tumour cell line growth inhibition, 48 h

Take a look at these entries with their results.
INSERT INTO assay_data (molecule, target_or_system, result) VALUES
  ('C/C=C1\CNC1C(=O)O (stereo not given)', 'IGROV1 ovarian', '> 100 µM'),
  ('CNC(=O)C1CCCN1C(=O)C(Cc1cnc[nH]1)NC(=O)C1CCC(=O)N1 (stereo not given)', 'IGROV1 ovarian', '> 100 µM'),
  ('C=C(C)[C@@H]1CC[C@]2(C(=O)O)CC[C@]3(C)[C@H](CC[C@@H]4[C@@]5(C)C/C(=C/c6ccc(OC)cc6)C(=O)C(C)(C)[C@@H]5CC[C@]43C)[C@@H]12', 'IGROV1 ovarian', '7.3 µM'),
  ('CCCc1nc(NC#N)nc(C(=O)NC23CC4CC(CC(C4)C2)C3)c1C', 'IGROV1 ovarian', '> 100 µM');

Consider the record given below.
Kindly note the recorded TGI for O=C(Nc1cccc([N+](=O)[O-])c1)C(=O)C(C(=O)c1ccccc1F)C1OC(=O)C2C=CC=CC21 (stereo not given) , which is > 100 µM

====

Exercise: state measured TGI for each of the compounds provided.
Tested on: HOP-62 NSCLC
Experiment: NCI tumour cell line growth inhibition, 48 h

// each listed compound needs a value for TGI
1. CC1OC(OC2C(CO)OC(O[C@H]3CC[C@@]4(C)C(=CC[C@H]5[C@@H]6C[C@@H]7O[C@](O)(CC[C@H](CO)COC8OC(CO)C(O)C(O)C8O)[C@@H](C)[C@@H]7[C@@]6(C)CC[C@@H]54)C3)C(OC3OC(C)C(O)C(O)C3O)C2O)C(O)C(O)C1O (stereo not given in full)
2. CC1=CC(=O)c2c(C=O)c(O)c(O)c(C(C)C)c2C1=O

Result ::
["> 100 µM", "> 100 µM"]

// each listed compound needs a value for TGI
1. CSc1ccc(-c2cc(-c3nc4ccccc4[nH]3)nc(N)c2C#N)cc1
2. CC(CO)(CBr)COC(=O)c1cc(Br)c(N)c(Br)c1 (stereo not given)
3. CCOC(=O)N/N=C(\Cc1ccc([N+](=O)[O-])cc1)OCC
4. C=C(Br)C(C)(Br)CCC(Br)C(C)(C)Br (stereo not given)
5. CC(C)n1c(=O)n(C)c2cnc3cc(F)c(-c4ccc(OCCCN5CCCCC5)nc4)cc3c21
6. C(=NCCCN1CCN(CCCN=Cc2cccc3ccccc23)CC1)c1cccc2ccccc12

Result ::
42.1 µM
> 100 µM
> 100 µM
34.9 µM
28.3 µM
> 100 µM

====

System: MDA-N
Assay: NCI tumour cell line growth inhibition, 48 h
readout.name: TGI

Take a look at these entries with their results.
INSERT INTO measurements (compound, result) VALUES
  ('Cc1coc2c1C(=O)C(=O)c1c-2ccc2c1CCCC2(C)C', '2.8 µM'),
  ('Cc1ccc2c(c1)C(C1Cc3cccc(C)c3C1=O)OC2=O (stereo unspecified)', '> 100 µM'),
  ('OCC1OC(n2cnc3c2NC=NC[C@H]3O)CC1O (stereo partly specified)', '> 500 µM'),
  ('C[C@@H](CO)C1=CC(C#C[Si](C)(C)C)N(C(=O)Oc2ccccc2)c2ccccc21 (stereo partly specified)', '23.7 µM');

// each listed compound needs a value for TGI
1. C/C=C1/CN2CCC34c5ccccc5N(C)C23C2CC1C4(C(=O)OC)C(O)O2 (stereo unspecified)
2. O=C(Nc1sccc1S(=O)(=O)c1ccc(Cl)cc1)c1ccccc1
3. COc1cc(C2S/C(=C/c3ccccc3)C(=O)N2c2cc(Cl)c(Cl)cc2Cl)cc(OC)c1OC (stereo unspecified)
4. CN(C)CCNC1=CC(=O)c2nc3ccccc3c3ccnc1c23
5. CC1(C)CCCCCCC2CC2CCCCCC(C)(C)C1=O (stereo unspecified)

Result ::
1. > 100 µM
2. > 100 µM
3. > 100 µM
4. 20.7 µM
5. > 100 µM

// each listed compound needs a value for TGI
1. COC(=O)C1(Cc2cccc(C)c2)Cc2c(C)cccc2C1=O (stereo unspecified)
2. COC(=O)CCc1ccc2c(c1)CC1(Cc3ccccc3C1)C2

Result ::
34.5 µM
> 100 µM

====

Tested on: SNB-75 CNS
Assay: NCI tumour cell line growth inhibition, 48 h
Exercise: state measured TGI for each of the compounds provided.
Numbers only, in µM.

Take a look at these entries with their results.
INSERT INTO measurements (compound, target_or_system, numeric_result) VALUES
  ('O=C(NCCNc1nccc(-c2c(-c3ccc(F)cc3)nc3sccn23)n1)c1ccccc1', 'SNB-75 CNS', 62.5),
  ('O=C1/C(=C/c2ccccc2F)CN(C(=O)C(Cl)Cl)C/C1=C\c1ccccc1F', 'SNB-75 CNS', 1.95),
  ('Clc1ccc(C2=NN[C@H](c3cn(-c4ccccc4)nc3-c3ccccc3)C2)cc1', 'SNB-75 CNS', 5.29);

// each listed compound needs a value for TGI
1. Cc1[nH]nc2ccc3nc(-c4ccc5[nH]ncc5c4)c4c(c3c12)CCCC4
2. CC(C)NC(=O)OCc1c(COC(=O)NC(C)C)c(-c2ccc(Cl)c(Cl)c2)n2c1CCC2
3. O=[N+]([O-])c1ccc(N/N=C(\c2ccccc2)c2ccccn2)nc1
4. CN(C)C(=S)N/N=C(\C(=N/NC(=S)N(C)C)c1ccccn1)c1ccccn1
5. CCC1c2[nH]c3ccccc3c2C[C@H]2C(=O)NC(CCCCNC(=O)OC(C)(C)C)C(=O)N12 (stereo not given in full)
6. C=CC[C@@H]1/C=C(\C)C[C@H](C)C[C@H](OC)[C@H]2O[C@@](O)(C(=O)C(=O)N3CCCC[C@H]3C(=O)O[C@H](/C(C)=C/C3CC[C@@H](O)[C@H](OC)C3)[C@H](C)[C@@H](O)CC1=O)[C@H](C)C[C@@H]2OC (stereo not given in full)

Result ::
[7.28, 61.7, 28.4, 27.4, 58.2, 25.1]

// each listed compound needs a value for TGI
1. COc1ccc(-c2nn(-c3cccc(NC(=O)c4cccc(C(F)(F)F)c4)c3)cc2-c2ccncc2)cc1Cl
2. Cc1c(-c2nnc(-c3ccc(F)cc3)o2)nnn1-c1ccnc2c(C(F)(F)F)cccc12
3. COc1ccc(-c2nc(N3CCOCC3)c3sc(CN(C)c4ncc(C(=O)NO)cn4)cc3n2)cn1

Result ::
1. 4.07
2. 61.2
3. 0.152

// each listed compound needs a value for TGI
1. CSc1nc2c(c(=O)[nH]1)N=C(c1ccc(Cl)cc1)CC(c1ccccc1)N2 (stereo not given)
2. CCC1CC(C)=CCN1S(=O)(=O)c1ccc(C)cc1 (stereo not given)
3. CC1=CC(=O)[C@@H](O)[C@]2(C)[C@H]3[C@@]4(O)OC[C@@]35[C@@H](C[C@@H]12)OC(=O)C(OC(=O)CC1=CCCC1)[C@H]5[C@@H](C)[C@H]4O (stereo not given in full)

Result ::
24.7
50.6
0.155

====

Exercise: state measured TGI for each of the molecules provided.
System: DU-145 prostate
Assay: NCI tumour cell line growth inhibition, 48 h

INSERT INTO measurements (molecule, result) VALUES
  ('CNC(=O)C1CCCN1C(=O)C(Cc1cnc[nH]1)NC(=O)C1CCC(=O)N1 (stereo not given)', '> 100 µM');

// each listed molecule needs a value for TGI
1. CSc1nc(C)c(Br)c(=O)n1C1OC(COC(C)=O)C(OC(C)=O)C(OC(C)=O)C1OC(C)=O (stereo not given)
2. CCOC(=O)c1c(-c2ccccc2)nc2c(OC)nccn12
3. CS/C(=N\S(=O)(=O)c1cc(C)c(Cl)cc1Cl)NNc1cnc2ccccc2n1
4. Cn1c(=O)cc(N=Nc2ccc(Cl)c(Cl)c2)[nH]c1=O

Result ::
1: > 100 µM; 2: > 100 µM; 3: > 100 µM; 4: > 100 µM

// each listed molecule needs a value for TGI
1. Cc1nn(-c2ccccc2)c2nc3c(nc12)C1=NCCN1C(c1ccc(Cl)cc1)N3 (stereo not given)
2. C/C=N\n1c(C)c(C#N)c(C#N)c1N
3. Cc1cn([C@H]2C[C@@H]3[C@@H](COC(CCl)N3O)O2)c(=O)[nH]c1=O (stereo not given in full)
4. CCCC(=O)NC(C(=O)OCC)(N1CCOCC1)C(F)(F)F (stereo not given)

Result ::
17.9 µM
> 100 µM
> 100 µM
> 100 µM

Kindly note the recorded TGI for Clc1ccc(C2=NN[C@H](c3cn(-c4ccccc4)nc3-c3ccccc3)C2)cc1 , which is 28.2 µM

All values here come from PubChem BioAssay (NCI).
